Test system: Human papillomavirus type 1a E7 protein (residues 1-88)
protocol: HPV1a E7 small-molecule binders, primary screen, biochemical, small-molecule microarray, residues 1-88, 635 nm (AID 1129)
particulars: small-molecule microarray binding, fluorescence 635 nm; higher = more signal
Reported composite z-score values for the following compounds.

{"mol": "CCc1cccc(NC(=O)O[C@H]2[C@H](OC(=O)Nc3ccccc3)[C@@H](OC(=O)Nc3ccccc3)[C@@H](OC)O[C@@H]2CO)c1", "testTarget": "Human papillomavirus type 1a E7 protein (residues 1-88)", "valueMeasured": 1.29}
{"mol": "C=CCOC(=O)[C@@H]1[C@H]2C(=O)O[C@H](c3ccccc3)[C@H](c3ccccc3)N2[C@H](c2ccc(OCCOC(=O)[C@H]3C[C@H]4C(=O)N[C@@H](CCCCNC(C)=O)C(=O)N4[C@H]3c3ccc(O)cc3)cc2)[C@@]12C(=O)Nc1ccc(I)cc12", "testTarget": "Human papillomavirus type 1a E7 protein (residues 1-88)", "valueMeasured": 0.894}

Lab note: next compound to report on.
-- ask Requested read-out composite z-score, target or system Human papillomavirus type 1a E7 protein (residues 1-88), entry C#CCCCON=C1C[C@@H](O)[C@@H](O)[C@@H]2[C@@H]3C(=O)N(Cc4ccc5c(c4)OCO5)C(=O)[C@@H]3CC[C@H]12
-- reply 0.57

The measured values listed here are drawn from PubChem BioAssay.
